- target or system: PDE4B2 (Homo sapiens, UniProt Q07343)
- Construct: purchased BPS Bioscience 60343
- Sequence (Q07343 1-564 isoform Q07343-2): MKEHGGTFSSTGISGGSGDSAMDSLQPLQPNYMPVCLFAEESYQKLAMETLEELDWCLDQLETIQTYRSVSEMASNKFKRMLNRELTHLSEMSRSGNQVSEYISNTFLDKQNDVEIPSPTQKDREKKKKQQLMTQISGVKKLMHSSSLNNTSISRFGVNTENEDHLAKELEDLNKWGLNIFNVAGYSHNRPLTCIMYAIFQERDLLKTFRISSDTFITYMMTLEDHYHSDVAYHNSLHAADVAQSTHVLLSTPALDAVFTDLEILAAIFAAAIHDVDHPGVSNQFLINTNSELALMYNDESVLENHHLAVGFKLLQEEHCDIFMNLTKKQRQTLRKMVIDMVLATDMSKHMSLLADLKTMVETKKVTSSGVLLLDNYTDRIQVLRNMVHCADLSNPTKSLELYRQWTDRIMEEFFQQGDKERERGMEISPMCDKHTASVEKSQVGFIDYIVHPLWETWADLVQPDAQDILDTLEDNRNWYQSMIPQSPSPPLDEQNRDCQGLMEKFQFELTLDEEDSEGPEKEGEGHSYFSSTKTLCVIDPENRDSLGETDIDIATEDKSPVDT
- protocol: Effect of compounds on PDE4B2 activity (fluorescence polarization kit)
- Assay type: biochemical
- test conditions: class symbols; read-out: PDE4B2 IC50
- Experimental: The effect of compounds on PDE4B2 activity was detected by a fluorescence polarization kit (BPS Bioscience, Catalog #60343). […] [formula] • I∥ (S535): fluorescence intensity in parallel direction • I⊥ (P535): fluorescence intensity in perpendicular direction • G: G factor=1 […] According to the calculated inhibition rate at each concentration, the IC50 value of each compound was calculated by GraphPad Prism 8 software.
Parameter IC50: see the listing below.

Completed entries (count: 5):
>  <compound>
N#CC1(c2cnc(C3=CCN(c4nc5c(c(NC6(CO)CCC6)n4)[S@+]([O-])CC5)CC3)nc2)CC1 [Compound 64]

>  <IC50>
< 0.01 µM

$$$$
>  <compound>
CC#Cc1cnc(C2=CCN(c3nc4c(c(NC5(CO)CCC5)n3)[S@+]([O-])CC4)CC2)nc1 [Compound 76]

>  <IC50>
< 0.01 µM

$$$$
>  <compound>
[O-][S@+]1CCc2nc(N3CC=C(c4ccc5c(c4)COB5O)CC3)nc(NC3(CO)CCC3)c21 [Compound 66]

>  <IC50>
< 0.01 µM

$$$$
>  <compound>
[O-][S@+]1CCc2nc(N3CC=C(c4ccc(Cl)cc4)CC3)nc(NC3(CO)CCC3)c21 [Compound 1]

>  <IC50>
< 0.01 µM

$$$$
>  <compound>
C#Cc1cnc(N2CCN(c3nc4c(c(NC5(CO)CCC5)n3)[S+]([O-])CC4)CC2)nc1 (stereo not drawn) [Compound 57]

>  <IC50>
0.01 to 0.05 µM

$$$$

Incoming: Look up IC50 for this compound: [O-][S@+]1CCc2nc(N3CC=C(c4cccc(S(F)(F)(F)(F)F)c4)CC3)nc(NC3(CO)CCC3)c21 [Compound 51]
Outgoing: < 0.01 µM

Incoming: Okay, and CP(C)(=O)c1ccnc(C2=CCN(c3nc4c(c(NC5(CO)CCC5)n3)[S@+]([O-])CC4)CC2)n1 [Compound 71] ?
Outgoing: 0.01 to 0.05 µM

Incoming: Cool, now [O-][S+]1CCc2nc(N3CC=C(c4ncc(C5CC5)cn4)CC3)nc(NC3(CO)CCC3)c21 (stereo not drawn) [Compound 53]
Outgoing: < 0.01 µM

Incoming: Can you handle Cc1coc(C2=CCN(c3nc4c(c(NC5(CO)CCC5)n3)[S@+]([O-])CC4)CC2)n1 [Compound 60] next?
Outgoing: 0.01 to 0.05 µM

Incoming: Input [O-][S@+]1CCc2nc(N3CCC(c4ccc(Cl)cc4)=C(F)C3)nc(NC3(CO)CCC3)c21 [Compound 43]
Outgoing: < 0.01 µM

Incoming: Next compound up: [O-][S@+]1CCc2nc(N3CCC(c4ccc5c(c4)CC5)CC3)nc(NC3(CO)CCC3)c21 [Compound 8]
Outgoing: 0.01 to 0.05 µM

Incoming: Same for N#Cc1ccc2c(c1)OCC1CN(c3nc4c(c(NC5(CO)CCC5)n3)[S+]([O-])CC4)CCN21 (single isomer, unassigned) [Compound 74-1]
Outgoing: < 0.01 µM

Incoming: Again, but for Cc1nnc(C2=CCN(c3nc4c(c(NC5(CO)CCC5)n3)[S@+]([O-])CC4)CC2)o1 [Compound 55]
Outgoing: < 0.01 µM

Incoming: Moving on to [O-][S+]1CCc2nc(N3CC4C(C3)C4c3ccc(Cl)cc3)nc(NC3(CO)CCC3)c21 (stereo not drawn) [Compound 20]
Outgoing: 0.01 to 0.05 µM

Incoming: Moving on to [O-][S@+]1CCc2nc(N3CC=C(c4nc5ccccc5s4)CC3)nc(NC3(CO)CCC3)c21 [Compound 56]
Outgoing: < 0.01 µM

====

- protocol: Pharmacokinetic test in mice
- Type: in vivo, ICR mice
- test conditions: i.g. (10 mg/kg)
The entries below are paired with their reported F.
API: value field is a number in %; no unit string.

Below are worked cases with known answers.
>  <molecule>
[O-][S@+]1CCc2nc(N3CC=C(c4ncc(Cl)cn4)CC3)nc(NC3(CO)CCC3)c21 [Compound 28]

>  <reading>
71.4

$$$$
>  <molecule>
[O-][S@+]1CCc2nc(N3CC=C(c4ccc(Cl)cc4)CC3)nc(NC3(CO)CCC3)c21 [Compound 1]

>  <reading>
76.2

$$$$

In the following, a different molecule is considered.
Incoming: Consider the molecule [O-][S@+]1CCc2nc(N3CCC=C(c4ccc(Cl)cc4)CC3)nc(NC3(CO)CCC3)c21 [Compound 5] and give its measured F.
Outgoing: 91.9

====

- protocol: Pharmacokinetic test in mice
- Format: in vivo, ICR mice
- test conditions: male, ICR, mouse, iv, plasma, i.v. (5 mg/kg)
- Description: 5.1 Experimental animals: Male ICR mice, 20-25 g, 6 mice/compound. Purchased from Chengdu Ddossy Experimental Animals Co., Ltd. 5.2 Experimental design: On the day of the experiment, 42 ICR mice were randomly grouped according to their body weights. The animals were fasted with water available for 12-14 h one day before administration and fed 4 h after administration. […]
property: clearance
Kindly format the answer as number then unit.

Incoming: GET /values?readout=clearance&item= C#Cc1cnc(C2=CCN(c3nc4c(c(NC5(CO)CCC5)n3)[S+]([O-])CC4)CC2)nc1 (stereo not shown)
Outgoing: 7.03 mL/min/kg

Incoming: Please do the same for `[O-][S@+]1CCc2nc(N3CCC=C(c4ccc(Cl)cc4)CC3)nc(NC3(CO)CCC3)c21` as well.
Outgoing: 5.71 mL/min/kg

Incoming: Follow-up item: `[O-][S@+]1CCc2nc(N3CC=C(c4ncc(Cl)cn4)CC3)nc(NC3(CO)CCC3)c21`
Outgoing: 4.67 mL/min/kg

Incoming: Query `[O-][S@+]1CCc2nc(N3CC=C(c4ccc(Cl)cc4)CC3)nc(NC3(CO)CCC3)c21` next
Outgoing: 4.55 mL/min/kg

====

Property: Emax; scope: individual compounds
- protocol: Inhibition of LPS-induced TNF-α release from human peripheral blood mononuclear cells in vitro
- Type: cell-based
- test conditions: PBMC, hPBMC, 100 ng/mL LPS, 4 h, read-out: Max inhibition (%)
A number alone suffices; assume %.

Please review the following examples before continuing.
>  <compound>
[O-][S@+]1CCc2nc(N3C[C@H]4CN(c5ccc6c(c5)CC6)C[C@H]4C3)nc(NC3(CO)CCC3)c21

>  <property>
Emax

>  <u>
%

>  <reading>
75.4

$$$$
>  <compound>
[O-][S@+]1CCc2nc(N3CC=C(c4ccc(Cl)c5c4CC5)CC3)nc(NC3(CO)CCC3)c21

>  <property>
Emax

>  <u>
%

>  <reading>
77.7

$$$$
>  <compound>
CC(=O)N1CCN2c3ccc(-c4nc5c(c(NC6(CO)CCC6)n4)[S+]([O-])CC5)cc3OCC2C1 (single isomer, unassigned)

>  <property>
Emax

>  <u>
%

>  <reading>
61.2

$$$$
>  <compound>
C[Si]1(C)CCN(c2cnc(C3=CCN(c4nc5c(c(NC6(CO)CCC6)n4)[S@+]([O-])CC5)CC3)nc2)CC1

>  <property>
Emax

>  <u>
%

>  <reading>
78.4

$$$$
>  <compound>
N#Cc1ccc2c(c1)OCC1CN(c3nc4c(c(NC5(CO)CCC5)n3)[S+]([O-])CC4)CCN21 (single isomer, unassigned)

>  <property>
Emax

>  <u>
%

>  <reading>
72.4

$$$$

Now examine the next entry.
Incoming: May I ask what Emax has been recorded for `[O-][S@+]1CCc2nc(N3Cc4cc5c(cc4C3)CCC5)nc(NC3(CO)CCC3)c21` ?
Outgoing: 74.4

====

- protocol: Pharmacokinetic test in monkeys
- Format: in vivo, cynomolgus monkeys
- test conditions: male, cynomolgus monkey, iv, plasma, i.v. (1 mg/kg)
property: clearance (mL/min/kg)
The figure you give is taken to be in mL/min/kg; do not add the unit.

Incoming: clearance lookup needed for `[O-][S@+]1CCc2nc(N3C[C@H]4CN(c5ccc6c(c5)CC6)C[C@H]4C3)nc(NC3(CO)CCC3)c21` , thanks.
Outgoing: 1.95

====

Measured half-life values are reported for all entries that follow.
- protocol: Pharmacokinetic test in mice
- Type: in vivo, ICR mice
- test conditions: male, ICR, mouse, iv, plasma, i.v. (5 mg/kg)
Note: unit h is implicit; provide only the numeric part.

Please review the following examples before continuing.
>  <molecule>
[O-][S@+]1CCc2nc(N3CC=C(c4ccc(Cl)cc4)CC3)nc(NC3(CO)CCC3)c21

>  <half-life [h]>
6.17

$$$$
>  <molecule>
[O-][S@+]1CCc2nc(N3CC=C(c4ncc(Cl)cn4)CC3)nc(NC3(CO)CCC3)c21

>  <half-life [h]>
3.59

$$$$
>  <molecule>
C#Cc1cnc(C2=CCN(c3nc4c(c(NC5(CO)CCC5)n3)[S+]([O-])CC4)CC2)nc1 (stereo not shown)

>  <half-life [h]>
3.34

$$$$

Now for another entry.
Incoming: I am curious: what half-life value has been reported for `[O-][S@+]1CCc2nc(N3CCC=C(c4ccc(Cl)cc4)CC3)nc(NC3(CO)CCC3)c21` ?
Outgoing: 2.72
